Target: His-tagged BACE1 protein (Example 15) (Homo sapiens (Human), UniProt P56817 22-457)
Sequence (P56817 22-457 limits assumed): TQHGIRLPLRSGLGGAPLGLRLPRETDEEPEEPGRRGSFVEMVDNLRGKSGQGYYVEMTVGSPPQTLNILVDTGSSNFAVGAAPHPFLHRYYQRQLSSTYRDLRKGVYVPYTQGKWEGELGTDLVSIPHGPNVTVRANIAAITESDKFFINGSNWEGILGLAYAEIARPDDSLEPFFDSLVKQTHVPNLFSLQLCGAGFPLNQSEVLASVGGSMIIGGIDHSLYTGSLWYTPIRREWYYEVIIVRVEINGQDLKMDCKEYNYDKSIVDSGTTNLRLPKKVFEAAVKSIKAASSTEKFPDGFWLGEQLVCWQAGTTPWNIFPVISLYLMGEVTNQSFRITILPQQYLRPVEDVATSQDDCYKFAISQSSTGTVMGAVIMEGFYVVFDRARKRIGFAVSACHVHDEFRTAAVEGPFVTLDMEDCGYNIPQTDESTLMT
Assay: SPR (Biacore T200), Fab on captured His-BACE1;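 further: Single-cycle kinetics with serially diluted Fab flowed over BACE1 captured by anti-His antibody on a CM5 chip, rates fitted to a one-to-one Langmuir model, Kd derived as koff over kon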

binder	result-units	kon
6266.15 Fab (Fab, V domains shown) VH: QVQLVQSGAEVKKPGSSVKVSCKASGGTLSGYGVSWVRQAPGQGLEWMGNIIPGFGTANYAQKFQGRVTITADESTSTAYMELSSLRSEDTAVYYCARSGGTKYGELDVWGQGTMVTVSS VL: EIVMTQSPATLSVSPGERATLSCRASQSVSSNLAWYQQKPGQAPRLLIYGASTRATGIPARFSGSGSGTEFTLTISSLQSEDFAVYYCQQLILWPPRTFGGGTKVEIK	M⁻¹ s⁻¹	774000
6266.4 Fab (Fab, V domains shown) VH: QVQLVQSGAEVKKPGSSVKVSCKASGGTLSHYGVSWVRQAPGQGLEWMGNIIPGIGTANYAQKFQGRVTITADESTSTAYMELSSLRSEDTAVYYCARSGGTKYGMLDVWGQGTMVTVSS VL: EIVMTQSPATLSVSPGERATLSCRASQSVSSNLAWYQQKPGQAPRLLIYGASKRATGIPARFSGSGSGTEFTLTISSLQSEDFAVYYCQQLILWPPRTFGGGTKVEIK	M⁻¹ s⁻¹	638000
6266.6 Fab (Fab, V domains shown) VH: QVQLVQSGAEVKKPGSSVKVSCKASGGTLSHYGVSWVRQAPGQGLEWMGNIIPGIGTANYAQKFQGRVTITADESTSTAYMELSSLRSEDTAVYYCARSGGTQYGMLDVWGQGTMVTVSS VL: EIVMTQSPATLSVSPGERATLSCRASQSVSSNLAWYQQKPGQAPRLLIYGASTRAYGIPARFSGSGSGTEFTLTISSLQSEDAAVYYCQQLILWPPRTFGGGTKVEIK	M⁻¹ s⁻¹	356000
